target: MAO-B (Homo sapiens, UniProt P27338); assay: MAO-B inhibition assay (continuous, benzylamine); conditions: read-out: Residual activity at 10 µM (%) MAO-B
Sequence (P27338 whole entry): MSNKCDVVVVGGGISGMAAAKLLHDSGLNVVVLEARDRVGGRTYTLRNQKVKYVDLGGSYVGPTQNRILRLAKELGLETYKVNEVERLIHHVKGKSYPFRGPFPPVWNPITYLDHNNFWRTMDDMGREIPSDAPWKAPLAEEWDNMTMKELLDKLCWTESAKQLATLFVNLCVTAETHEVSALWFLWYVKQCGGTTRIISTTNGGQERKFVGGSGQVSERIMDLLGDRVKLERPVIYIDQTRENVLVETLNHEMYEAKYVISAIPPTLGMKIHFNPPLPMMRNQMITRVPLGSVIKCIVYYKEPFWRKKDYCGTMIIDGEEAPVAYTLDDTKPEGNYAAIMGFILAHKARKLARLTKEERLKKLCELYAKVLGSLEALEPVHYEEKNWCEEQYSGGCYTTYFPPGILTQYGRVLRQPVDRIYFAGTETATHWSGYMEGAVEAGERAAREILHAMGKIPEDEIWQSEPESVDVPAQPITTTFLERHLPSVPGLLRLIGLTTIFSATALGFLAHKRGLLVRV
measurement kind: remaining activity at 10 µM

>>> data_value("O=C1Nc2ccc(F)cc2/C1=N/NC(=O)c1ccc(F)cc1")
"44.3%"
>>> data_value("O=C1Nc2ccccc2/C1=N/NC(=O)c1ccc(Br)cc1")
"3.2%"
>>> data_value("O=C1Nc2ccc(Br)cc2/C1=N/NC(=O)c1ccc(F)cc1")
"42.5%"

----------
Target sequence: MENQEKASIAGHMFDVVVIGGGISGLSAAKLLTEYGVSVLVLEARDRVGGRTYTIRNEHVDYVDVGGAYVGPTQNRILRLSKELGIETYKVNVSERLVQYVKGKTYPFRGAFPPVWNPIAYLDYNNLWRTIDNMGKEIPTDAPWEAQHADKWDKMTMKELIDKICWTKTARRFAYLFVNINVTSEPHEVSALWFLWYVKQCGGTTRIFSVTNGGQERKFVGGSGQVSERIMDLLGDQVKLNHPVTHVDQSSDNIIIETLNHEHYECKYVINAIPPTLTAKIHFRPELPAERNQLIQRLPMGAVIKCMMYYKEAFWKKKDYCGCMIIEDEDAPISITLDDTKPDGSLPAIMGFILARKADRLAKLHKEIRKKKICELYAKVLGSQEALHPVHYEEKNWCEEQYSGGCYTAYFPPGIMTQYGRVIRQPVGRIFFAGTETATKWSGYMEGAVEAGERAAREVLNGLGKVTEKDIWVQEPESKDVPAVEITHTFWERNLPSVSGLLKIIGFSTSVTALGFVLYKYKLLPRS
pIC50: −log10 of the molar value.
measurement kind: pIC50

>>> data_value("O=C1Nc2ccccc2/C1=N/NC(=O)c1ccc(F)cc1")
4.46
>>> data_value("O=C1Nc2ccc(Br)cc2/C1=N/NC(=O)c1ccc(Cl)cc1")
5.04
>>> data_value("O=C1Nc2ccc(F)cc2/C1=N/NC(=O)c1ccc(F)cc1")
5.37

----------
target: MAO-A (Homo sapiens, UniProt P21397); test: MAO-A inhibition assay (continuous, kynuramine); settings: read-out: Residual activity at 10 µM (%) MAO-A
measurement kind: remaining activity at 10 µM (%)

>>> data_value("O=C1Nc2ccccc2/C1=N/NC(=O)c1ccc(F)cc1")
69.7
>>> data_value("O=C1Nc2ccc(Br)cc2/C1=N/NC(=O)c1ccc(Cl)cc1")
46.9
>>> data_value("O=C1Nc2ccc(F)cc2/C1=N/NC(=O)c1ccc(Br)cc1")
43.6
